test.system: HLA-B*4402 (human)
experimental.details: competition binding assay, purified HLA class I
assay.setup: remark: other sources report otherwise
measured.property: pIC50
Answer as the number alone; pIC50 is minus log10 of concentration in mol/L.

*Q* Fill in: pIC50 of VETSYVKVL [… (MAGE3 position 279, 9-mer)] is ___
*A* 7.10

Entry source: patent EP1903056A2
